Reference for the values: the supplement of paper PMC7877785

Items are presented alongside their recorded self-splicing fitness (ln).
Assay: self-splicing fitness, log relative to wild type (ln ratio); higher = more splicing; Tetrahymena group I intron in knt gene, E. coli kanamycin selection, DiMSum; sequences stand for … in CUCUCU…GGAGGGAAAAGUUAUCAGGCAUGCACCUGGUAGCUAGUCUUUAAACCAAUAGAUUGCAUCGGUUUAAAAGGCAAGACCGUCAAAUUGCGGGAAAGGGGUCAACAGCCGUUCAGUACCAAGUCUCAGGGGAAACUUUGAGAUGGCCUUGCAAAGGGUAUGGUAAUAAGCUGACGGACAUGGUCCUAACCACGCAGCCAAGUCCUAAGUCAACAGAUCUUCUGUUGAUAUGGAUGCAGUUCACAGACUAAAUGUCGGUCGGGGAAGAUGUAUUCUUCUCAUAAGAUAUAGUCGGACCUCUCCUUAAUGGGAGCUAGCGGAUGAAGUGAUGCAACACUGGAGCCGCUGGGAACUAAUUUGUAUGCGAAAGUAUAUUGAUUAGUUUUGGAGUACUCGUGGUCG;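 further: selection with 25 µg/mL kanamycin versus none on LB agar overnight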
Details: 30 °C

Residue String | self-splicing fitness (ln)
UUGAAGCAAUAUUACGAAAG | -1.47
GACAAGCAAUAUUACGAAGU | -4.61
GCUGAGCAAUAUUACGUUCA | -3.45
AUCUAGCAAUAUUACGCAGC | -2.64
AUUGAGCAAUAUUACGACGC | -2.27
UCGUAGCAAUAUUACGGAAA | -3.38
CUAUAGCAAUAUUACGACGC | -3.02
CCUAAGCAAUAUUACGUCCU | -3.74
UAGCAGCAAUAUUACGCUCU | -1.27
AUUUAGCAAUAUUACGUGGG | -3.33
UAACAGCAAUAUUACGCACA | -0.339
CCAAAGCAAUAUUACGCAGA | -3.75
UUACAGCAAUAUUACGGGGG | -2.2
CCGGAGCAAUAUUACGCUUC | -2.55
GCUCAGCAAUAUUACGUAAC | -1
CAAAAGCAAUAUUACGAUUC | -2.41
GGGAAGCAAUAUUACGACGC | -0.0345
CAUCAGCAAUAUUACGCGAU | -3.69
CACCAGCAAUAUUACGGUAC | -3.11
ACACAGCAAUAUUACGUCCG | -1.3
CACUAGCAAUAUUACGUGGU | -3.41
AGAAAGCAAUAUUACGCCCG | -0.679
CAACAGCAAUAUUACGGCGU | -2.15
UGGAAGCAAUAUUACGAACU | 0.00939
UUGCAGCAAUAUUACGGGAC | -3.01
CACCAGCAAUAUUACGGGCC | -3.9
ACAUAGCAAUAUUACGUAAA | -1.66
UGCAAGCAAUAUUACGUUCG | -0.427
UUGCAGCAAUAUUACGGAUG | -2.29
AAUUAGCAAUAUUACGACAU | -0.0913
CUGUAGCAAUAUUACGAUUC | -3.71
CGACAGCAAUAUUACGCAGA | -2.61
GAAAAGCAAUAUUACGGACA | -0.576
GAGCAGCAAUAUUACGGCCU | -0.475
GCCGAGCAAUAUUACGUGGG | -4.56
AUGUAGCAAUAUUACGCCCG | -0.83
AGUAAGCAAUAUUACGCAGA | -3.22
GACCAGCAAUAUUACGUCCA | -1.75
UCGCAGCAAUAUUACGCUAA | -1.96
GUCAAGCAAUAUUACGUAAG | -2.15
CGAUAGCAAUAUUACGCGCA | -0.97
AGACAGCAAUAUUACGUACU | -0.834
ACUUAGCAAUAUUACGCGCU | -0.535
CUUGAGCAAUAUUACGGACG | -0.339
CAUUAGCAAUAUUACGUCCG | -0.0564
AACUAGCAAUAUUACGCUCU | -0.509
AAAAAGCAAUAUUACGUGUU | -2.04
GCCGAGCAAUAUUACGUUUA | -2.56
AAGGAGCAAUAUUACGCCAA | -4.19
GGCAAGCAAUAUUACGGGAC | -2.46
CUCCAGCAAUAUUACGGAAG | -3.34
UUGCAGCAAUAUUACGGAUU | -2.96
CGGGAGCAAUAUUACGGCCG | -3.09
UAUUAGCAAUAUUACGCUUA | -1.05
CGAUAGCAAUAUUACGUCCA | -1.86
ACUUAGCAAUAUUACGGGGU | -2.71
AACGAGCAAUAUUACGGACU | -1.88
UGGUAGCAAUAUUACGCUCA | -0.626
GCUGAGCAAUAUUACGUAAC | -2.3
GUCAAGCAAUAUUACGCGGG | -4.2
CAUUAGCAAUAUUACGAUCA | -2.81
CUAAAGCAAUAUUACGCGCU | -3.15
CGUCAGCAAUAUUACGAAUG | -0.494
CCUUAGCAAUAUUACGUGGC | -4.19
ACCAAGCAAUAUUACGGAAA | -3.14
GUCGAGCAAUAUUACGGCGC | -0.811
AAUAAGCAAUAUUACGGAGU | -3.06
